- ASSAYED_SYSTEM: P. falciparum apicoplast DNA polymerase (Pf-apPOL) (Plasmodium falciparum, UniProt Q8ILY1)
- Sequence (Q8ILY1 entry or part of it): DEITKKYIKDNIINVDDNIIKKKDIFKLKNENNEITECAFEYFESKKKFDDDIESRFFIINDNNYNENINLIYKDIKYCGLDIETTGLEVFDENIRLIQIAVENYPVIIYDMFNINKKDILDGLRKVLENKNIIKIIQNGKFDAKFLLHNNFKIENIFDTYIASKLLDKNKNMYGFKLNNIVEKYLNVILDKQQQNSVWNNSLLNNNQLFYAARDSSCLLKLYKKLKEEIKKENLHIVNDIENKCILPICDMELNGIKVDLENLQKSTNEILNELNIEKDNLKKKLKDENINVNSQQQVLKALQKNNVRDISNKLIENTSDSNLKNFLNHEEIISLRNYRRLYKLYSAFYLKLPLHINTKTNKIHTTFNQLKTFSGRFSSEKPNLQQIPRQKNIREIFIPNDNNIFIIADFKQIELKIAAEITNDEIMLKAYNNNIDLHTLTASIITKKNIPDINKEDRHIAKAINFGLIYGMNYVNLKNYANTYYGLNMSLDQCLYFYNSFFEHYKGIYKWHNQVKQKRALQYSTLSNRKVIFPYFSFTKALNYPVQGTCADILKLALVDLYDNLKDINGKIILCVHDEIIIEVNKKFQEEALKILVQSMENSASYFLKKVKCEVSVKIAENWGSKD
- ASSAY_TEXT: Fluorescence-based high-throughput DNA polymerase assay (molecular beacon), primary screen and dose-response;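 on % inhibition Apol 40': compound concentration given in µM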
- Format: biochemical
- TEST_PARAMETERS: DRC-2; 40'; concentration 10
READOUT_NAME: % inhibition Apol 40' (%)
Reply with just the number (in %).

Example entries and their recorded answers appear below.
NC(=O)c1cc[n+](CC2=C(C(=O)[O-])N3C(=O)[C@@H](NC(=O)[C@@H](c4ccccc4)S(=O)(=O)[O-])[C@H]3SC2)cc1.[Na+]: 49
CCOc1ccc(/C=C2\N=C(c3cc([N+](=O)[O-])cc([N+](=O)[O-])c3)OC2=O)cc1: 47

The value of % inhibition Apol 40' measured for the compound COCC(=O)Nc1c(-c2cccc(F)c2)nc2cc(C)ccn12 turned out to be 40

====

- ASSAYED_SYSTEM: bacteriophage T4 DNA polymerase (Enterobacteria phage T4, UniProt P04415)
- Construct: made in house
- Sequence (P04415 1-898): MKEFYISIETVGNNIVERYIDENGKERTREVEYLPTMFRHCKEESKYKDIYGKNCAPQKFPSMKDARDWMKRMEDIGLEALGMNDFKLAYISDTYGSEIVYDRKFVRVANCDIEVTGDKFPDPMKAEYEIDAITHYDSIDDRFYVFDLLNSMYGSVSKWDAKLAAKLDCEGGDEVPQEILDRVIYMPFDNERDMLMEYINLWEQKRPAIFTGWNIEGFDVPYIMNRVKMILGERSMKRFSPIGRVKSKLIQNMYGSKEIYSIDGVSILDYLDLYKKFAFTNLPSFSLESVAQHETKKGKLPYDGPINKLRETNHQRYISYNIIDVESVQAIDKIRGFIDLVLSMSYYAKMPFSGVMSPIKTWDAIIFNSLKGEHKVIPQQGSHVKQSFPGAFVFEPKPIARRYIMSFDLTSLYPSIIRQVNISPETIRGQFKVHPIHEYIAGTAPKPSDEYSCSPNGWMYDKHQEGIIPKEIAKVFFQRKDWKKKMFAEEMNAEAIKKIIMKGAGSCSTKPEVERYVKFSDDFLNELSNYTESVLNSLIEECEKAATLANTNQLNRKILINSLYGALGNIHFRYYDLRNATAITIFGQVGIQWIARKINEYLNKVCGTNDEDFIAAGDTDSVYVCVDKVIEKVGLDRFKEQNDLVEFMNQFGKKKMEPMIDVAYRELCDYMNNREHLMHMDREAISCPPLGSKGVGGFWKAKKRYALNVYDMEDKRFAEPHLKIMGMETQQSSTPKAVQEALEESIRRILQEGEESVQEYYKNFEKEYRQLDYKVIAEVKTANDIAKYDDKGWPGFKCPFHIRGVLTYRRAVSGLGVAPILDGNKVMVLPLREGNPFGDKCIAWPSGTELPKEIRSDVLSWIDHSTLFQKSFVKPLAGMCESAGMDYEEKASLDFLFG
- ASSAY_TEXT: Counter-screen against bacteriophage T4 DNA polymerase
- Assay type: biochemical
- TEST_PARAMETERS: DRC-2; 180'; concentration 10
# % inhibition T4 180' >= -10% gives condition met, anything below gives condition not met

Lookup: % inhibition T4 180' >= -10% for COc1ccc(-c2cc3nc4c(c(=O)n3[nH]2)CCN(C(=O)CCc2ccccc2)C4)cc1 [Molecule 17] ?
Found: condition not met

Lookup: % inhibition T4 180' >= -10% for COc1ccc(CNC(=O)Cn2nc3c(c2NC(=O)Cc2cccs2)CSC3)cc1 [Molecule 55] ?
Found: condition met

Lookup: % inhibition T4 180' >= -10% for COc1cccc(C(=O)N2CCc3c(nc4cc(-c5ccccc5)[nH]n4c3=O)C2)c1OC [Molecule 22] ?
Found: condition not met

Lookup: % inhibition T4 180' >= -10% for CC(C)(C)OC(=O)COc1ccc2cc(-c3ccccc3)c(=O)oc2c1 [Molecule 81] ?
Found: condition met

Lookup: % inhibition T4 180' >= -10% for O=[N+]([O-])c1ccc(/C=C/c2ccc3ccccc3n2)o1 [Molecule 21, O=N(=O)c1ccc(o1)/C=C/c1ccc2c(n1)cccc2] ?
Found: condition met

Lookup: % inhibition T4 180' >= -10% for Cc1ccc(C)n1-c1ccc(C(=O)NNC(=O)c2ccc3nccnc3c2)cc1 [Molecule 53] ?
Found: condition met

Lookup: % inhibition T4 180' >= -10% for Cc1ccc(NC(=O)Cn2ccc3c(=O)[nH]ccc32)cc1F [Molecule 48, O=C(Cn1ccc2c1cc[nH]c2=O)Nc1ccc(c(c1)F)C] ?
Found: condition not met

Lookup: % inhibition T4 180' >= -10% for O=C(CSc1nnc(-c2ccco2)[nH]1)c1ccc(Cl)cc1 [KU0029065] ?
Found: condition met

Lookup: % inhibition T4 180' >= -10% for O=C1N=C(Nc2cccc(Cl)c2Cl)S/C1=C\c1ccco1 [Molecule 3, O=C1N=C(S/C/1=C\c1ccco1)Nc1cccc(c1Cl)Cl] ?
Found: condition met

Lookup: % inhibition T4 180' >= -10% for COc1ccc(-c2n[nH]cc2Oc2ccc(Cl)cc2)c(O)c1 [KU0029837] ?
Found: condition not met

Lookup: % inhibition T4 180' >= -10% for O=C(NC(C(Cl)Cl)S(=O)(=O)c1ccccc1)c1ccccc1 (stereo not shown) [KU0045239] ?
Found: condition not met

Lookup: % inhibition T4 180' >= -10% for Cc1ccc(-n2nnc(C(=O)O)c2-c2ccccn2)c(F)c1 [Molecule 54, Cc1ccc(c(c1)F)n1nnc(c1c1ccccn1)C(=O)O] ?
Found: condition met

====

Catalogue of % inhibition ApPOL 90' values
- ASSAYED_SYSTEM: P. falciparum apicoplast DNA polymerase (Pf-apPOL) (Plasmodium falciparum, UniProt Q8ILY1)
- ASSAY_TEXT: Fluorescence-based high-throughput DNA polymerase assay (molecular beacon), primary screen and dose-response;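 on % inhibition ApPOL 90': test concentration in µM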
- Type: biochemical
- TEST_PARAMETERS: DRC-2; 90'; concentration 10
State the value with its unit after it.

CN(C)S(=O)(=O)Oc1ccc(-c2noc(-c3ccc(Oc4cc(Cl)cc(Cl)c4)o3)n2)cc1 [KU0263859]: 32%

The value of % inhibition ApPOL 90' measured for the compound CCC(C)NC(=O)c1cc(NC(C)=O)cc2nc(C)ccc12 (stereo not shown) [KU0206314] turned out to be 21%

The value of % inhibition ApPOL 90' measured for the compound CCN1C(=O)C(=Cc2cccc(OC)c2O)SC1=S [Molecule 78, CCN1C(=S)SC(=Cc2cccc(c2O)OC)C1=O] turned out to be 5.68%

The value of % inhibition ApPOL 90' measured for the compound O=C(O)c1ccc(-c2nc3cc(-c4ccc5nc(-c6ccc(C(=O)O)cc6)[nH]c5c4)ccc3[nH]2)cc1 [Molecule 1] turned out to be 28%

====

- ASSAYED_SYSTEM: P. falciparum apicoplast DNA polymerase (Pf-apPOL) (Plasmodium falciparum, UniProt Q8ILY1)
- ASSAY_TEXT: Fluorescence-based high-throughput DNA polymerase assay (molecular beacon), primary screen and dose-response
- Type: biochemical
- TEST_PARAMETERS: DRC-2, 5', concentration 20
- Description: The HT assay employs a molecular beacon, a stem-loop DNA template with a Cy3 dye and the Black Hole Quencher on the 3′ and 5′ ends of the DNA, respectively. Pf-apPOL concentration is based on a calculated absorptivity of ε280 = 56750 M^−1 cm^−1. […] To identify apPOL inhibitors we utilised our previously developed high-throughput DNA polymerase assay. […] The assay accurately recapitulates the kinetic behaviour of apPOL, as measured through more conventional low-throughput gel-based assays. […]
Each entry falls in a class defined on % inhibition Apo pol 5'; the bands are lower range: < 30%; middle range: ≥ 30% and < 40%; upper range: ≥ 40%

Example results:
CCOC(=O)C(NCc1ccco1)(NC(=O)c1ccco1)C(F)(F)F (centres unmarked) [KU0276119]: middle range
O=C(Nc1ncc([N+](=O)[O-])s1)c1ccc2c(c1)C(=O)N(N1C(=O)c3ccccc3C1=O)C2=O [KU0026378]: middle range
O=C(Nc1nnc(-c2ccno2)o1)c1ccc2c(c1)OCO2 [KU0171343]: lower range
Oc1ccc(N=Nc2ccccc2)c(O)c1 [Molecule 80, Oc1ccc(c(c1)O)N=Nc1ccccc1]: middle range
CSCCC(C)(O)CNC(=O)C1CC1 (centres unmarked) [KU0200150]: lower range
O=[N+]([O-])c1cc2c(cc1CN1CCN(c3cccc(Cl)c3)CC1)OCO2 [KU0005610]: middle range
CCSc1nnc(NC(=O)Cc2csc(NC(=O)c3cnccn3)n2)s1 [Molecule 79]: upper range
O=C(c1c[nH]c2ncccc12)N1CCCCCC1 [Molecule 51, O=C(c1c[nH]c2c1cccn2)N1CCCCCC1]: middle range
O=C(O)CC1=NN(c2cccc([N+](=O)[O-])c2)C(=O)C1 [KU0100531]: upper range
CS(=O)(=O)c1cccc(C(=O)Nc2nnc(-c3ccno3)o2)c1 [KU0171319]: lower range

Lookup: Class (by measured % inhibition Apo pol 5') for O=C(NNC(=O)C(F)(F)Sc1ccccc1)c1ccsc1 [Molecule 68, O=C(C(Sc1ccccc1)(F)F)NNC(=O)c1cscc1]
Found: middle range

Lookup: Class (by measured % inhibition Apo pol 5') for O=C(O)CC1SC(c2ccc3c(c2)OCO3)=NC1=O (centres unmarked) [Molecule 69, OC(=O)CC1SC(=NC1=O)c1ccc2c(c1)OCO2]
Found: lower range

Lookup: Class (by measured % inhibition Apo pol 5') for CN(C)C=C1SCc2ccccc2C1=O [Molecule 77, CN(C=C1SCc2c(C1=O)cccc2)C]
Found: middle range

Lookup: Class (by measured % inhibition Apo pol 5') for COc1ccccc1CCC(=O)N1CCc2c(nc3cc(-c4ccccc4)[nH]n3c2=O)C1 [Molecule 7]
Found: upper range

Lookup: Class (by measured % inhibition Apo pol 5') for CN(C)C=CC(=O)c1ccccn1 [Molecule 64, CN(C=CC(=O)c1ccccn1)C]
Found: upper range

Lookup: Class (by measured % inhibition Apo pol 5') for COc1ccc(C(=O)Nc2cccc(-c3nc4ncccc4o3)c2)cc1[N+](=O)[O-] [KU0063313]
Found: lower range

Lookup: Class (by measured % inhibition Apo pol 5') for Cn1nc(C(=O)N2CCc3c(nc4cc(-c5ccccc5)[nH]n4c3=O)C2)c2ccccc21 [Molecule 18]
Found: upper range

Lookup: Class (by measured % inhibition Apo pol 5') for CN1CC(=Cc2ccco2)C(=O)C(=Cc2ccco2)C1 [Molecule 65, CN1CC(=Cc2ccco2)C(=O)C(=Cc2ccco2)C1]
Found: upper range

Lookup: Class (by measured % inhibition Apo pol 5') for Cc1nn(CC(=O)NCCSCc2ccco2)c(C)c1Br [KU0267182]
Found: lower range

Lookup: Class (by measured % inhibition Apo pol 5') for O=c1cc(-c2ccccc2)oc2c(O)c(O)ccc12 [Molecule 84, Oc1ccc2c(c1O)oc(cc2=O)c1ccccc1]
Found: middle range
